# credit: patent US20190276531A1

Please go through the items and note down their pEC50.
TEST SYSTEM: T1, human TIM-3 Fc fusion antigen (Sino Biologicals) (human, UniProt Q8TDQ0 22-202)
T1 construct: Bought; also called human TIM-3 ECD; not shown: Fc part of the bought fusion protein, not described
EXPERIMENTAL DETAILS: ELISA; TIM-3 Fc fusion coated at 1 µg/ml, antibody titrated 2-fold from 1000 nM, HRP secondary
Give bare numbers, as −log10 of the molar value.

Measured pEC50, antibody 20621 (antibody, V domains shown) VH: QVQLQQSGPGLVKPSQTLSLTCTVSGGSISSGGYYWSWIRQHPGKGLEWIGYISYSGSIYYNPSLKSRVTISVDTSKNQFSLKLSSVTATDTAVYYCATAYYDLLTGYPFDYWGQGTLVTVSS VL: EIVMTQSPATLSLSPGERATLSCRASQSVSSYLAWYQQKPGQAPRLLIYDASNRATGIPARFSGSGSGTDFTLTISSLEPEDFAVYYCQQRSNWPITFGQGTRLEIK : 9.66

Measured pEC50, antibody 19416 (antibody, V domains shown) VH: QVQLVESGPGLVKPSQTLSLTCTVSGGSINSGGYYWSWIRQHPGKGLEWIGYIYYSGSIYYNPSLRSRLTISVDTSKNQFSLKLSSVTAADTAVYYCATPYYYGSGSYGDYWGQGTLVTVSS VL: DIQMTQSPATLSLSPGERATLSCRASQSVNNYLAWYQQKPGQAPRLLIYDASNRATGIPARFSGSGSGTDFTLTISSLEPEDFAVYYCQQRSNWPITFGQGTRLEIK : 9.70

Measured pEC50, antibody 20362 (antibody, V domains shown) VH: QVTLKESGPGLVKPSQTLSLTCTVSGGSISSGGHYWSWIRQHPGKGLEWIGYISYSGSTYYNPSLKSRLTISVDTSKNQFSLKLSSVTAADTAVYYCATAYYDILTGYPFDYWGQGTLVTVSS VL: EIVMTQSPATLSLSPGERATLSCRASQSVSSYLAWYQQKPGQAPRLLIYDASDRATGIPARFSGSGSGTDFTLTISSLEPEDFAVYYCQQRSNWPITFGQGTRLEIK : 9.59

Next:
Measured pEC50, antibody 19568 (antibody, V domains shown) VH: QMQLQESGPGLVKPSQTLSLTCTVSGGSISSVGYYWNWIRQHPGKGLEFIGYIYYSGSIYYNPSLKSRVTISVDTSKNQFSLKLSSVTAADTALYYCASVGIVGASYFEYWGQGTLVTVSS VL: EIVMTQSPATLSLSPGERATLSCRASQSVSSYLAWYQQKPGQAPRLLIYDASNRATGIPARFSGSGSGTDFTLTISSLEPEDFAVYYCQQRSNWPITFGQGTRLEIK : 9.42
